- Test system: Candida albicans
- Assay protocol: Antifungal activity against Candida albicans WTBF-50 by microbroth dilution method
- Type: functional
Metric: MIC (µg/mL)
Hi! Could you send only the number? It should be in µg/mL, unit omitted.

compound=CN1CCCN=C1c1ccc2cc(-c3ccc(-c4cc5ccc(C6=NCCCN6C)cc5[nH]4)cc3)[nH]c2c1 metric=MIC measured_number=1.59
compound="CC1CNC(c2ccc3cc(-c4ccc(-c5cc6ccc(C7=NC(C)CN7)cc6[nH]5)cc4)[nH]c3c2)=N1.O=C(O)C(F)(F)F (stereo not drawn)" metric=MIC measured_number=0.79
compound=CC(=O)O.c1cc2cc(-c3ccc(-c4ccc5nc(C6=NCCCN6)cn5c4)cc3)oc2cc1C1=NCCCN1 metric=MIC measured_number=4

For this compound ( "CC(=O)O.c1cc2cc(-c3ccc(-c4ccn5cc(C6=NCCCN6)nc5c4)cc3)[nH]c2cc1C1=NCCCN1" ), measured MIC is 0.79

For this compound ( FC1CN=C(c2ccc3cc(-c4ccc(-c5cc6ccc(C7=NCC(F)CN7)cc6[nH]5)cc4)[nH]c3c2)NC1.O=C(O)C(F)(F)F (stereo not drawn) ), measured MIC is 0.5

For this compound ( "CC(=O)O.c1cc2cc(-c3ccc(-c4ccc5nc(C6=NCCCN6)cn5c4)cc3)[nH]c2cc1C1=NCCCN1" ), measured MIC is 0.5

For this compound ( "O=C(O)C(F)(F)F.c1cc2cc(-c3ccc(-c4cn5cc(C6=NCCCN6)ccc5n4)cc3)[nH]c2cc1C1=NCCCN1" ), measured MIC is 0.63

###

- System: Candida albicans
- Assay protocol: Fungicidal activity against Candida albicans WTBF-50 assessed as inhibition of lipid biosynthesis after 90 mins by [3H]-acetate incorporation assay
- Type: functional, organism-based
Metric: IC50

For this compound ( C[C@@H]1[C@H](O)[C@@H](C)/C=C/C=C/C=C/C=C/C=C/C=C/C=C/[C@H](O[C@@H]2O[C@H](C)[C@@H](O)[C@H](N)[C@@H]2O)C[C@@H]2O[C@](O)(C[C@@H](O)C[C@@H](O)[C@H](O)CC[C@@H](O)C[C@@H](O)CC(=O)O[C@H]1C)C[C@H](O)[C@H]2C(=O)O [AMPHOTERICIN B] ), measured IC50 is 0.036 µg/mL

For this compound ( N=C(N)c1ccc(OCCCCCOc2ccc(C(=N)N)cc2)cc1 [PENTAMIDINE] ), measured IC50 is > 25 µg/mL

For this compound ( "O=C(O)C(F)(F)F.c1cc2cc(-c3ccc(-c4cc5ccc(C6=NCCCN6)cc5[nH]4)cc3)[nH]c2cc1C1=NCCCN1" ), measured IC50 is ≥ 2 µg/mL

For this compound ( "CC(=O)O.c1cc2cc(-c3ccc(-c4c[nH]c5cc(C6=NCCCN6)ccc45)cc3)[nH]c2cc1C1=NCCCN1" ), measured IC50 is ≥ 2 µg/mL

###

- Tested on: Candida albicans
- Assay protocol: Fungicidal activity against Candida albicans WTBF-50 assessed as inhibition of RNA biosynthesis after 90 mins by [3H]-uridine incorporation assay
- Format: functional, organism-based
This listing pairs compounds with measured IC50.
Hi! Could you send only the number? It should be in µg/mL, unit omitted.

For this compound ( "O=C(O)C(F)(F)F.c1cc2cc(-c3ccc(-c4cc5ccc(C6=NCCCN6)cc5[nH]4)cc3)[nH]c2cc1C1=NCCCN1" ), measured IC50 is 0.32

For this compound ( "N=C(N)c1ccc(OCCCCCOc2ccc(C(=N)N)cc2)cc1" ), measured IC50 is 12.2

For this compound ( "C[C@@H]1[C@H](O)[C@@H](C)/C=C/C=C/C=C/C=C/C=C/C=C/C=C/[C@H](O[C@@H]2O[C@H](C)[C@@H](O)[C@H](N)[C@@H]2O)C[C@@H]2O[C@](O)(C[C@@H](O)C[C@@H](O)[C@H](O)CC[C@@H](O)C[C@@H](O)CC(=O)O[C@H]1C)C[C@H](O)[C@H]2C(=O)O" ), measured IC50 is 0.014

For this compound ( "CC(=O)O.c1cc2cc(-c3ccc(-c4c[nH]c5cc(C6=NCCCN6)ccc45)cc3)[nH]c2cc1C1=NCCCN1" ), measured IC50 is 0.56

###

- Assay protocol: Metabolic stability in liver microsomes (unknown origin)
- Assay type: ADME
Metric: Stability

molecule="FC1CN=C(c2ccc3cc(-c4ccc(-c5cc6ccc(C7=NCC(F)CN7)cc6[nH]5)cc4)[nH]c3c2)NC1.O=C(O)C(F)(F)F (configuration not stated)" result=Stable
molecule=CC(=O)O.c1cc2nc(-c3ccc(-c4ccc5cc(C6=NCCCN6)oc5c4)cc3)cn2cc1C1=NCCCN1 result=Stable
molecule=CC(=O)O.c1cn2cc(-c3ccc(-c4ccc5cc(C6=NCCCN6)oc5c4)cc3)nc2cc1C1=NCCCN1 result=Stable
molecule=Cl.OCC1(CO)CN=C(c2ccc3cc(-c4ccc(-c5cc6ccc(C7=NCC(CO)(CO)CN7)cc6[nH]5)cc4)[nH]c3c2)NC1 result=Stable
molecule="N=C(NC1CCC(O)CC1)c1ccc2cc(-c3ccc(-c4cc5ccc(C(=N)NC6CCC(O)CC6)cc5[nH]4)cc3)[nH]c2c1.O=C(O)C(F)(F)F (configuration not stated)" result=Stable

For this molecule ( "c1cc2cc(CCCc3cc4ccc(C5=NCCCN5)cc4[nH]3)[nH]c2cc1C1=NCCCN1" ), measured Stability is Stable

For this molecule ( "CC(=O)O.c1cc2cc(-c3ccc(-c4c[nH]c5cc(C6=NCCCN6)ccc45)cc3)[nH]c2cc1C1=NCCCN1" ), measured Stability is Stable

###

- Test system: Candida parapsilosis
- Assay protocol: Antifungal activity against Candida parapsilosis ATCC 90018 WTBF-88 by microbroth dilution method
- Format: functional
- Experimental context: Lodderomyces parapsilosis
We label by threshold. Values of MIC strictly beneath 0.3 µg/mL are 1 (yes). Values of 0.3 µg/mL and up are 0 (no).

molecule=CC(=O)O.c1cc2cc(-c3cnc(-c4cc5ccc(C6=NCCCN6)cc5o4)cn3)oc2cc1C1=NCCCN1 class_assignment="0 (no)"
molecule=Nc1nc(=O)[nH]cc1F class_assignment="0 (no)"
molecule=c1cc2cc(CCCCc3cc4ccc(C5=NCCCN5)cc4[nH]3)[nH]c2cc1C1=NCCCN1 class_assignment="0 (no)"
molecule=CC(C)NC(=N)c1ccc2cc(-c3ccc(-c4cc5ccc(C(=N)NC(C)C)cc5[nH]4)cc3)[nH]c2c1.O=C(O)C(F)(F)F class_assignment="1 (yes)"
molecule=CC(=O)O.c1cn2cc(-c3ccc(-c4ccc5cc(C6=NCCCN6)[nH]c5c4)cc3)nc2cc1C1=NCCCN1 class_assignment="0 (no)"
molecule=O=C(O)C(F)(F)F.c1cc2cc(CCc3cc4ccc(C5=NCCCN5)cc4[nH]3)[nH]c2cc1C1=NCCCN1 class_assignment="0 (no)"
molecule=CN(C)CCNC(=N)c1ccc2cc(-c3ccc(-c4cc5ccc(C(=N)NCCN(C)C)cc5[nH]4)cc3)[nH]c2c1.O=C(O)C(F)(F)F class_assignment="0 (no)"
molecule=Brc1c(-c2ccc(-c3[nH]c4cc(C5=NCCCN5)ccc4c3Br)cc2)[nH]c2cc(C3=NCCCN3)ccc12.O=C(O)C(F)(F)F class_assignment="0 (no)"

# evaluate next
Query string: Determine whether this molecule shows MIC lower than 0.3 µg/mL (ties excluded): FC1CN=C(c2ccc3cc(-c4ccc(-c5cc6ccc(C7=NCC(F)CN7)cc6[nH]5)cc4)[nH]c3c2)NC1.O=C(O)C(F)(F)F (stereo not drawn)
Result string: 1 (yes)

###

- Tested on: Candida albicans
- Assay protocol: Fungicidal activity against Candida albicans WTBF-50 assessed as inhibition of cell wall biosynthesis after 90 mins by [3H]-glucosamine incorporation assay
- Assay type: functional, organism-based
This listing pairs compounds with measured IC50.
Hi! Could you send only the number? It should be in µg/mL, unit omitted.

compound="C[C@@H]1[C@H](O)[C@@H](C)/C=C/C=C/C=C/C=C/C=C/C=C/C=C/[C@H](O[C@@H]2O[C@H](C)[C@@H](O)[C@H](N)[C@@H]2O)C[C@@H]2O[C@](O)(C[C@@H](O)C[C@@H](O)[C@H](O)CC[C@@H](O)C[C@@H](O)CC(=O)O[C@H]1C)C[C@H](O)[C@H]2C(=O)O [AMPHOTERICIN B]" display_unit=µg/mL measured_number=0.043
compound=CC(=O)O.c1cc2cc(-c3ccc(-c4c[nH]c5cc(C6=NCCCN6)ccc45)cc3)[nH]c2cc1C1=NCCCN1 display_unit=µg/mL measured_number=0.87

Continue with the next compound.
For this compound ( "O=C(O)C(F)(F)F.c1cc2cc(-c3ccc(-c4cc5ccc(C6=NCCCN6)cc5[nH]4)cc3)[nH]c2cc1C1=NCCCN1" ), measured IC50 is 0.59
